- System: MDA-MB-231 breast
- method notes: NCI tumour cell line growth inhibition, 48 h
observation type: log10(TGI) (log10 of the value in µM)

INSERT INTO assay_data (molecule, observation_type, meas_value) VALUES
  ('CN(C)c1ccc(/C=C2\C[C@H]3[C@@H]4CCc5cc(OCCN6CCCC6)ccc5[C@H]4CC[C@]3(C)[C@H]2O)cc1', 'log10(TGI)', 1.21),
  ('O=C(Nn1cc(F)c(=O)[nH]c1=O)C12CC3CC(CC(C3)C1)C2', 'log10(TGI)', 1.57),
  ('CN(C)c1ccc(/C=C(\C#N)c2nc(-c3cc4ccccc4oc3=O)cs2)cc1', 'log10(TGI)', 1.61),
  ('COc1ccc([As]=[As]c2ccc(OC)c(NCS(=O)(=O)O)c2)cc1NCS(=O)(=O)O (stereo unspecified)', 'log10(TGI)', 0.53),
  ('CCCCCCCCCCOC1C(C(O)CNCCCN(C)C)OC2OC3(CCCCC3)OC21 (stereo unspecified)', 'log10(TGI)', 0.52),
  ('O=C(NCc1ccccc1)c1cc2ccccc2oc1=Nc1ccccc1F', 'log10(TGI)', 1.67),
  ('O=C1/C(=C/c2ccc(O)c(CN3CCCCC3)c2)CCC/C1=C\c1ccc(O)c(CN2CCCCC2)c1', 'log10(TGI)', 1.24),
  ('CN(C)CCOc1ccc2[nH]c(C(=O)N3CC(CCl)c4c3cc(NC(=O)OCc3ccc([N+](=O)[O-])cc3)c3ccccc43)cc2c1 (stereo unspecified)', 'log10(TGI)', 0.51),
  ('Nc1nc(N)c(-c2cccc(C(F)(F)F)c2)c(Cc2cccc(C(F)(F)F)c2)n1', 'log10(TGI)', 1.42);

* * *

TGI values for the molecules below.
- Tested on: HCT-116 colon
- method notes: NCI tumour cell line growth inhibition, 48 h
observation type: TGI

INSERT INTO assay_data (molecule_smiles, meas_value) VALUES
  ('CN(C)c1ccc(/C=C(\C#N)c2nc(-c3cc4ccccc4oc3=O)cs2)cc1', '> 50 µM'),
  ('O=C(CNC(=O)c1ccccc1)Oc1c(Cl)c(Cl)c(Cl)c(Cl)c1Cl', '> 100 µM'),
  ('O=C(c1ccccc1)c1c(C(F)(F)F)n([O-])c2ccc(F)cc2[n+]1=O', '1.02 µM'),
  ('O=C1/C(=N\n2c(-c3ccncc3)n[nH]c2=S)c2cc(Cl)ccc2N1CN1CCCCC1', '> 100 µM'),
  ('CN(C)c1ccc(/C=C2\C[C@H]3[C@@H]4CCc5cc(OCCN6CCCC6)ccc5[C@H]4CC[C@]3(C)[C@H]2O)cc1', '8.78 µM');

* * *

Reported TGI is given for each of the following molecules.
- Tested on: SW-620 colon
- method notes: NCI tumour cell line growth inhibition, 48 h
observation type: TGI

INSERT INTO assay_data (molecule, meas_value) VALUES
  ('O=C1/C(=N\O)C2CCC1C2 (stereo unspecified)', '> 100 µM'),
  ('CCc1ccccc1NC(=O)C1=C(C)NC(C)=C(C(=O)Nc2ccccc2CC)C1c1cccc([N+](=O)[O-])c1', '> 100 µM'),
  ('C=C1C(=O)OC2C1C(=O)C/C(C)=C/CCC1(C)OC21 (stereo unspecified)', '40.8 µM'),
  ('CN(C)CCOc1ccc2[nH]c(C(=O)N3CC(CCl)c4c3cc(NC(=O)OCc3ccc([N+](=O)[O-])cc3)c3ccccc43)cc2c1 (stereo unspecified)', '2.61 µM'),
  ('S=C1C(=Nc2ccccc2)N(C2CCCCC2)C(=NC2CCCCC2)N1c1ccccc1', '> 100 µM'),
  ('O=C(O)CN(CCN(CC(=O)O)CC(=O)O)CC(=O)O', '> 100 µM'),
  ('CCOC(=O)C1C(=O)CN2CCc3c([nH]c4ccccc34)C12C(=O)OCC (stereo unspecified)', '> 100 µM'),
  ('c1ccc2nc3c(cc2c1)Sc1cc2ccccc2[n+]2c1N3CC2', '> 100 µM'),
  ('Cc1cccc2c1CC1(Cc3ccccc3C1=O)C2=O (stereo unspecified)', '> 100 µM'),
  ('CCOC(=O)C1=C(C)N=C2SC=C(c3ccccc3)N2[C@H]1c1cn[nH]c1-c1ccc(Cl)cc1', '14.4 µM'),
  ('OCCCc1n(Cc2ccc3ccccc3c2)c2ccccc2[n+]1Cc1ccc2ccccc2c1', '3.22 µM'),
  ('O=C1Nc2ccccc2/C1=C/C(=O)c1ccc(N2CCCC2)cc1', '3.01 µM'),
  ('Clc1ccc(C2=Nc3ccccc3SC(c3cccs3)C2)cc1 (stereo unspecified)', '25.8 µM'),
  ('O=C1c2ccccc2-c2c1c1ccc([N+](=O)[O-])cc1c(=O)n2CCCN1CCOCC1', '> 100 µM'),
  ('Cc1ncc(-c2nnnn2-c2ccccc2)c(C(=O)O)n1', '> 100 µM'),
  ('S=c1sc2c(s1)SCc1cccc(n1)CSc1sc(=S)sc1SCc1cccc(n1)CS2', '> 100 µM'),
  ('O=c1ssc2c1Nc1c(ssc1=O)S2', '31.1 µM'),
  ('N#CCC(=O)N/N=C(\CCN1CCCC1)CC(c1ccccc1)c1c(O)c2ccccc2oc1=O (stereo unspecified)', '> 100 µM'),
  ('OCCN(CCO)CCn1cnc2c(NCc3ccccc3)ncnc21', '> 100 µM'),
  ('CC(=O)Nc1nc2ncc(C=O)nc2c(=O)[nH]1', '> 100 µM'),
  ('CC(C)=CCC/C(C)=C/CCC(C(=O)COCc1ccccc1)P1(=O)OC(C)(C)CN1C(C)(C)C (stereo unspecified)', '> 100 µM');

* * *

- Tested on: T-47D breast
- method notes: NCI tumour cell line growth inhibition, 48 h
observation type: TGI

INSERT INTO assay_data (molecule, assayed_target, meas_value) VALUES
  ('CN(C)c1ccc(C2SCC(=O)N2c2nc3cc4sc(N5C(=O)CSC5c5ccc(N(C)C)cc5)nc4cc3s2)cc1 (centres undefined)', 'T-47D breast', '> 100 µM'),
  ('O=C1/C(=C/c2ccc(O)c(CN3CCCCC3)c2)CCC/C1=C\c1ccc(O)c(CN2CCCCC2)c1', 'T-47D breast', '35.8 µM'),
  ('NC(=O)c1nnsc1N/N=C/c1ccc([N+](=O)[O-])cc1', 'T-47D breast', '> 100 µM'),
  ('Cc1nc2ccc(Nc3nc(Cl)nc(Nc4ccc(F)cc4)n3)cc2n1Cc1ccccc1', 'T-47D breast', '4.58 µM'),
  ('CCCCCCCCCCCC[C@@H](O)[C@H]1CC[C@H]([C@H](O)CCCC[C@H](O)CCCCC[C@@H](O)CC2=C[C@H](C)OC2=O)O1', 'T-47D breast', '14.1 µM'),
  ('O=C(c1ccccc1)c1c(C(F)(F)F)n([O-])c2ccc(F)cc2[n+]1=O', 'T-47D breast', '2.51 µM'),
  ('CC(C)(C)OC(=O)NC(Cc1ccc(OCc2ccccc2)cc1)C(=O)NC(COCc1ccccc1)C(=O)Oc1c(Cl)c(Cl)c(Cl)c(Cl)c1Cl (centres undefined)', 'T-47D breast', '88.5 µM'),
  ('COC(=O)C1(Cc2ccccc2)Cc2cc3c(cc2C1)CCC3', 'T-47D breast', '75.9 µM'),
  ('c1ccc2nc3c(cc2c1)Sc1cc2ccccc2[n+]2c1N3CC2', 'T-47D breast', '64.9 µM');

* * *

- System: HOP-62 NSCLC
- method notes: NCI tumour cell line growth inhibition, 48 h; in the data active = GI50 below about 0.43 µM; inactive = the rest
Outcome codes: active, inactive

INSERT INTO results (molecule_smiles, assayed_target, label_value) VALUES
  ('O=C(CI)OCC(COC(=O)CI)OC(=O)CI', 'HOP-62 NSCLC', 'inactive'),
  ('C/C(=N\NC(=O)c1ccc(C(C)(C)C)cc1)c1ccc(O)cc1O', 'HOP-62 NSCLC', 'inactive'),
  ('COc1cc2c(cc1OC)[C@@H]1C(=O)c3cc4c(cc3[C@@H]1N(CCN(C)C)C2=O)OCO4', 'HOP-62 NSCLC', 'active'),
  ('O=C(Cc1csc2nc(-c3ccc(Br)cc3)cn12)N/N=C/c1ccccc1', 'HOP-62 NSCLC', 'inactive'),
  ('CCOC(=O)C1=C(C)N=C2SC=C(c3ccccc3)N2[C@H]1c1cn[nH]c1-c1ccc(Cl)cc1', 'HOP-62 NSCLC', 'inactive');

* * *

- Tested on: MOLT-4 leukemia
- method notes: NCI tumour cell line growth inhibition, 48 h
// values below are reported TGI
observation type: TGI

INSERT INTO assay_data (molecule_smiles, observation_type, meas_value) VALUES
  ('COc1ccc(-c2nn(C(=O)NCCN(C)C)cc2-c2ccncc2)cc1Cl', 'TGI', '> 100 µM'),
  ('COc1cc(C(=O)N2CCN(c3ccccn3)CC2)c(N)cc1OCc1ccccc1', 'TGI', '> 100 µM'),
  ('O=C(CI)OCC(COC(=O)CI)OC(=O)CI', 'TGI', '4.57 µM');
